Numbers sourced from patent US9468209B2.

Consider the following compounds; for each one, report its Damage level.
Test system: Rumex dentatus
Test: Leaf piece damage test
Format: in vivo
Parameters: key: 4: The leaf completely dead; 3: Two third of the leaf withered; 2: One half of the leaf withered; 1: Only edge of the leaf withered; 0: Not damage at all
Settings: 50 μg/mL, 4 days
// return a plain number; no unit text

Incoming: Indicate its recorded Damage level; the compound in question is CCCCC1NC(=O)C(C(C)=O)=C1O (stereo not shown)
Outgoing: 2

Incoming: Indicate its recorded Damage level; the compound in question is CCCC(C#N)C1NC(=O)C(=C(C)O)C1=O (stereo not shown)
Outgoing: 2

Incoming: Indicate its recorded Damage level; the compound in question is CCCCCCC1NC(=O)C(C(C)=O)=C1O (stereo not shown)
Outgoing: 2

Incoming: Indicate its recorded Damage level; the compound in question is CCC(C)C1NC(=O)C(C(=O)CCc2cc(Cl)cc(Cl)c2)=C1O (stereo not shown)
Outgoing: 3

Incoming: Indicate its recorded Damage level; the compound in question is CCCC(Cl)C1NC(=O)C(C(C)=O)=C1O (stereo not shown)
Outgoing: 2

Incoming: Indicate its recorded Damage level; the compound in question is CCCCCC1NC(=O)C(C(C)=O)=C1O (stereo not shown)
Outgoing: 2

Incoming: Indicate its recorded Damage level; the compound in question is CCC(C)C1NC(=O)C(C(=O)CCF)=C1O (stereo not shown)
Outgoing: 3

---

Consider the following compounds; for each one, report its Average diameter of the spot after 24 h, H2O wash.
System: Crofton weed
Assay: Needle puncture test on Crofton weed with washes recovered from compound-treated soil
Assay type: in vivo
Settings: after soil treatment (3 hours), H2O wash
Respond with the bare value in mm.

Incoming: Indicate its recorded Average diameter of the spot after 24 h, H2O wash; the compound in question is CCCC(Cl)C1NC(=O)C(C(C)=O)=C1O (stereo not shown) [Compound 40]
Outgoing: 0.336

Incoming: Indicate its recorded Average diameter of the spot after 24 h, H2O wash; the compound in question is CCC(C)C1NC(=O)CC1=O (stereo not shown) [Compound 1]
Outgoing: 0.223

Incoming: Indicate its recorded Average diameter of the spot after 24 h, H2O wash; the compound in question is CCCC(Cl)C1NC(=O)CC1=O (stereo not shown) [Compound 2]
Outgoing: 0.280

Incoming: Indicate its recorded Average diameter of the spot after 24 h, H2O wash; the compound in question is CCC(C)C1NC(=O)C=C1O (stereo not shown) [Compound 3]
Outgoing: 0.273
